Field: kon. Provide a value for each of the binders that follow.
# Tgt: MERS RBD-hFc (MERS-CoV (isolate EMC/2012))
# Procedure text: SPR Biacore, captured mAb, 37 C
Answers are plain numbers, in M⁻¹ s⁻¹.

Would you mind listing kon for each of the following binders?
1. H1H15208P (antibody, V domains shown) VH: EVQLVESGGDLVQPGGSLRLSCTASGFTFSNYEMNWVRQAPEKGLDWVSFISSSGGAIYYADSVKGRFTISRDNAKNSLYLQMNSLRAEDSAIYFCARSDSGGNSRYWGQGTLVTVSS VL: DIQMTQSPSSVSASVGDRVTVTCRASQDISNWLVWYQQKPGKAPKFLIYAASSLQSGVPSRFSGSGSGTDFTLTISSLQPEDFATYYCQQANSFPPTFGGGTKVEIK
2. H2aM15270N (antibody, V domains shown) VH: EVQLLESGGGLEQPGGSLRLSCAASGFTFSSYAMIWVRQAPGKGLEWVSTISGSGVNTYYADSVKGRFTISRDNSKNTLHLQMNSLRAEDTAVYHCAKEGLDCANGVCYNYYGMDVWGQGTTVTVSS VL: DIQMTQSPSSLSASVGDRVTITCRASQSINSFLNWYHQKPGKAPKFLIYSASNLQSGVPSRFSGSGSGTDFTLTISSLQPEDFSTYYCQQSYSIPLTFGGGTKVEIK
3. H1H15188P (antibody, V domains shown) VH: QVQLVQSGAEVKKPGSSVKVSCKASGGSFSVYAISWVRQAPGQGLEWMGGIIPIFGTANYAQKFQDRFTITTDESTSTAYMELSSLRSEDTAMYYCAREGDIVVLPAGKGGMDVWGQGTTVTVSS VL: DIVMTQSPLSLPVTPGEPASISCRSSQSLLHGNGYNYLDWYLQKPGQSPQLLIYLVSHRASGVPDRFSGSGSGTDFTLKISRVEAEDVGVYYCMQALQSPWTFGQGTKVEIK
4. H2aM15287N (antibody, V domains shown) VH: QLQLQESGPGLVKPSETLSLTCTVSGGSISSGNYYWGWIRQPPGKGLEWFGTIYYSGSTYYNPSLKSRVTISVDTSKNQFSLKLSSVTAADTAVYYCARRAAVGHFDYWGQGTLVTVSS VL: DIQMTQSPSTLSASVGDRVTITCRASQSISTWLAWYQQKPGKAPKLLIYEASSLESGVPSRFSGSGFGTEFTLTISRLQPDDFATYFCQQYNTYWTFGQGTKVEIK
5. H2aM15279N (antibody, V domains shown) VH: EVQLLESGGGLVQTGGSLRLSCAASGFTFSNYAMSWVRQAPGKGLEWVSAISDRGGSIYYADSVKGRFTISRDNSKNTKYLQMDSLRAEDTAVYYCAQDRGFGVFDYWGQGTLVTVSS VL: DIQMTQSPSSLSASVGDRVTITCQASQDIGNYLNWFQQRPGKAPNLLIYGASNLETGVPSRFSGGGSGTDFTFTISSLQPEDIATYFCQQYDNLPFTFGPGTKVEIK

525000
1.75e+06
1.59e+06
174000
1.39e+06

Source: patent US20190351049A1
